# system.name: T1, HLA-DRB1*0101 (human)
# T1 construct: purified MHC class II molecule; also called DR1
# procedure.text: competition with 125I-labelled standard peptide, purified HLA-DR, gel filtration
endpoint: IC50 (nM)
Return type: number; implicit unit nM.

Task: Which value of IC50 has been reported for DEAYVMAGVGSPYVS [Her2/neu.769] in the records?
Result: 100
